EXPERIMENTAL_PROTOCOL: compound effects on lung adenocarcinoma cell viability – A549, calcein-AM fluorescence, 48 h, basal, profiling panel (AID 1162); further: test concentration not given here
CONDITION: higher = more signal
Reported values of z-score for individual entries
# output: bare number, no unit

Examples from the recorded data:
{"COMPOUND": "CCCCN1CC=CC23O[C@@H]4C=CCOC(=O)[C@@H]4[C@H]2C(=O)N(CCCCCCO)[C@@H]3C1=O (stereo partly drawn)", "EXPERIMENTAL_VALUE": 0.327}
{"COMPOUND": "C=C(CCCC)/C(=C/C[C@H](OC(C)=O)c1ccccc1OCCO)c1cnc2ccccc2c1", "EXPERIMENTAL_VALUE": 0.615}

# get_value(readout='z-score', item= COc1ccc([Si](C)(C)[C@H]2[C@H](CCO)O[C@@]3(C(=O)N(Cc4ccccc4)c4ccc(N5CCCCC5=O)cc43)[C@@H]2C)cc1 )
-0.0531

---

EXPERIMENTAL_TARGET: Alpha-bungarotoxin (Bungarus multicinctus) (UniProt P60615)
Sequence (P60615 whole entry, looked up): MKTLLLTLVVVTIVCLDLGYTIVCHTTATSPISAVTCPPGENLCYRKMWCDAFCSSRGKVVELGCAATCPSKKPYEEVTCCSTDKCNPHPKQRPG
EXPERIMENTAL_PROTOCOL: compounds binding labelled alpha-BTX control protein – biochemical, small-molecule microarray, Alexa647 label, 635/667 nm fluorescence, artefact control for SMM control protein annotation, profiling panel (AID 1117)
CONDITION: alpha-BTX-A647 binding fluorescence, higher = more signal
Rule: composite z-score of -0.2 or more gives true; anything lower gives false.

Study these solved cases before continuing.
{"COMPOUND": "O=C(NCCN1CCOCC1)[C@@H]1c2ccccc2C(=O)N(Cc2cc(C(F)(F)F)cc(C(F)(F)F)c2)[C@H]1c1ccc(CO)cc1", "EXPERIMENTAL_TARGET": "Alpha-bungarotoxin (Bungarus multicinctus) (UniProt P60615)", "CATEGORY": "true"}
{"COMPOUND": "COCCOC(=O)N1C(=O)[C@@]2(c3ccccc31)[C@H](c1ccc(OCCO)cc1)N1[C@H](c3ccccc3)[C@H](c3ccccc3)OC(=O)[C@H]1[C@@H]2C(=O)N1CCc2cc(OC)c(OC)cc2C1", "EXPERIMENTAL_TARGET": "Alpha-bungarotoxin (Bungarus multicinctus) (UniProt P60615)", "CATEGORY": "true"}

Hi, just wondering whether CCCCCN1CC=CC23O[C@@H]4C=CCOC(=O)[C@@H]4[C@H]2C(=O)N(C(C)CO)[C@@H]3C1=O (stereo partly specified) shows composite z-score of -0.2 or higher.
false

Reported composite z-score reaches at least -0.2 for CC(C)[Si](C#CCCCC#N)(Oc1ccccc1Br)C(C)C ?
true

Is the recorded value of composite z-score equal to or greater than -0.2 for this compound? CCCCC(=C=CC[C@@H](O)c1ccc(CO)o1)CCO
true

Record CC(C)NC(=O)[C@@H]1c2ccccc2C(=O)N(C(C)C)[C@H]1c1ccc(CO)cc1 ; criterion: composite z-score no lower than -0.2. Met?
false

State whether the measured composite z-score reaches -0.2, counting equality as reaching it, for CCCCC(=C=CC[C@H](O)c1cccc(OCCO)c1)C[C@H](O)c1ccccn1
true

I'd appreciate it if you could say whether O=C1NC(=O)C2C1C=CC(C(O)C1CC=CCC1)N2Nc1ccccn1 (stereo unspecified) has composite z-score at least equal to -0.2.
false

Decide: composite z-score of COCC(=C=CC[C@@H](O)c1ccc(OCCO)cc1)C[C@@H](O)c1ccccn1 >= -0.2?
true

Could you tell me if the measured composite z-score of C=CCC(OC(C)=O)[C@@H]1[C@@H](N(Cc2ccc(-c3ccccc3)cc2)C(=O)Cc2ccc(F)cc2)c2cc(OCCCO)ccc2N1C(=O)c1ccc2ccccc2c1 (stereo partly specified) reaches -0.2 or more?
true

Textbook exercise: given the entry COC(=O)C(CC#Cc1ccc2c(c1)[C@]1(C(=O)N2)[C@H](c2ccccc2OCCO)N2[C@H](c3ccccc3)[C@H](c3ccccc3)OC(=O)[C@H]2[C@@H]1C(N)=O)C(=O)OC , state whether its composite z-score is greater than or equal to -0.2.
true

---

EXPERIMENTAL_PROTOCOL: growth modulation of vineyard yeast isolate – strain RM11-1a, OD600, basal, 24 h, primary screen (AID 1177);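 further: cultures grown under basal conditions with no added stressor; test concentration not given here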
CONDITION: S. cerevisiae RM11-1a growth, OD600, 24 h; higher = more signal, called active from +8 up or from −8 down
# reported z-score; entries follow
Form rule: numeric answer, no unit written next to it.

{"COMPOUND": "C=C(C)[C@@H]1CC=C(C(O)C2C=CC3C(=O)NC(=O)C3N2Nc2ccc(Cl)cc2Cl)CC1 (stereo partly specified)", "z-score": 1.11}
{"COMPOUND": "C=CCNC(=O)[C@@H]1[C@H]2C(=O)O[C@H](c3ccccc3)[C@H](c3ccccc3)N2[C@H](c2ccc(OCCO)cc2)[C@@]12C(=O)N(C(=O)OCCOC)c1ccc(C#CCNC(N)=O)cc12", "z-score": 2.78}
{"COMPOUND": "C[N+](C)(C)CCCC[C@@H]1NC(=O)[C@H]2C[C@@H](C(=O)NCCCCCCNC(=O)CS)[C@@H](c3ccc(O)cc3)N2C1=O", "z-score": -0.0807}
{"COMPOUND": "[N-]=[N+]=NCc1ccccc1C[C@@]1(C(=O)NCC(O)CO)N=C(c2ccc(OCCCO)cc2)O[C@@H]1c1ccccc1 (stereo partly specified)", "z-score": 0.355}
{"COMPOUND": "COc1cc2c(cc1O)C=[N+](Cc1cc3c(cc1Br)OCO3)CC2", "z-score": 0.593}

Next compound, z-score to be filled in.
Recorded z-score for C#CCNCc1ccccc1 , please?
-0.389

---

EXPERIMENTAL_TARGET: Fibroblast growth factor 10 (Homo sapiens)
EXPERIMENTAL_PROTOCOL: compounds binding fibroblast growth factor 10 – biochemical, small-molecule microarray, 635 nm fluorescence, primary screen (AID 1102)
CONDITION: FGF10 binding, fluorescence 635 nm, higher = more signal
Classification field: true (1) = composite z-score at or over 0.8; false (0) = composite z-score under 0.8.

As a guide, the following entries are already answered.
{"MOLECULE": "CCOc1ccc(N2C(=O)CSC2c2cccc([N+](=O)[O-])c2)cc1 (stereo unspecified)", "CATEGORY": "false (0)"}
{"MOLECULE": "COCCOC(=O)N1C(=O)[C@@]2(c3cc(C#Cc4ccc(OC)cc4)ccc31)[C@H](c1ccc(O)cc1)N1[C@H](c3ccccc3)[C@H](c3ccccc3)OC(=O)[C@H]1[C@@H]2C(=O)Nc1nc2ccccc2s1", "CATEGORY": "true (1)"}
{"MOLECULE": "C=CCC(OC(C)=O)[C@@H]1[C@@H](N(Cc2ccc(-c3cccc(C(F)(F)F)c3)o2)C(=O)c2cccc3ccccc23)c2cc(OCCCO)ccc2N1C(=O)Cc1ccc2ccccc2c1 (stereo partly specified)", "CATEGORY": "false (0)"}
{"MOLECULE": "O=C1O[C@H](c2ccccc2)[C@H](c2ccccc2)N2[C@H]1[C@@H](C(=O)NC[C@H](O)c1ccccc1)[C@]1(C(=O)Nc3ccccc31)[C@H]2c1ccc(O)cc1", "CATEGORY": "true (1)"}

Here is another molecule to look at.
Evaluate CCCCCCCCCCC(O)C1C=CC2C(=O)NC(=O)C2N1Nc1ccc(Cl)cc1Cl (stereo unspecified) : composite z-score at minimum 0.8?
false (0)

---

EXPERIMENTAL_TARGET: Streptavidin (Streptomyces avidinii) (UniProt P22629)
Sequence (P22629 whole entry, looked up): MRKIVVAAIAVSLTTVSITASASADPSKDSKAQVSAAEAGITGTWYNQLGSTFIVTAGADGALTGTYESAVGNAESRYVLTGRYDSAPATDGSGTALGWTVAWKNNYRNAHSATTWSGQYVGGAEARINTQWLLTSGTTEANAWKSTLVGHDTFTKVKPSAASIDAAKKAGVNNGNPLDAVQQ
EXPERIMENTAL_PROTOCOL: compounds binding control protein streptavidin – biophysical, small-molecule microarray, 635/667 nm fluorescence, artefact control for SMM compound annotation, primary screen (AID 1147);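 further: signal reflects streptavidin binding to arrayed compounds as a control protein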
CONDITION: higher = more signal
MEASURED_PARAMETER: composite z-score
Lab note: record the figure alone, no unit after it.

{"COMPOUND": "NCCCCCNC(=O)[C@H]1C[C@H]2C(=O)N[C@@H](Cc3ccccc3)C(=O)N2[C@H]1c1cccc(OCCO)c1", "composite z-score": 0.951}
{"COMPOUND": "CCOc1cc(C(O)C2C=CC3C(=O)N(c4ccccc4)C(=O)C3N2Nc2ccc(C(C)C)cc2)ccc1O (stereo not given)", "composite z-score": 0.809}
{"COMPOUND": "CC1CC/C=C\\[C@H]2OC34C=CCN(c5ccc6ccccc6c5)C(=O)[C@H]3N(CCO)C(=O)[C@@H]4C2C(=O)O1 (stereo not given in full)", "composite z-score": -0.818}
{"COMPOUND": "CC(=O)n1cc(C(O)C2C=CC3C(=O)NC(=O)C3N2Nc2ccccn2)c2ccccc21 (stereo not given)", "composite z-score": 0.153}

Now let's try a different one.
Form field - read-out: composite z-score; system: Streptavidin (Streptomyces avidinii) (UniProt P22629); submitted item: [N-]=[N+]=NCc1ccccc1[C@@H]1OC(c2ccc(OCCCO)cc2)=N[C@]1(CCS(=O)(=O)c1ccccc1)C(=O)N1CCOCC1
1.5
